target: Human DDB1 (Homo sapiens (Human), UniProt Q16531); assay: Surface plasmon resonance (SPR) binding assay to immobilized His-DDB1; details: SPR, steady state affinity model, 25° C.; read-out: Binding (DDB1 binder activities, Kd)
Sequence (Q16531 whole entry): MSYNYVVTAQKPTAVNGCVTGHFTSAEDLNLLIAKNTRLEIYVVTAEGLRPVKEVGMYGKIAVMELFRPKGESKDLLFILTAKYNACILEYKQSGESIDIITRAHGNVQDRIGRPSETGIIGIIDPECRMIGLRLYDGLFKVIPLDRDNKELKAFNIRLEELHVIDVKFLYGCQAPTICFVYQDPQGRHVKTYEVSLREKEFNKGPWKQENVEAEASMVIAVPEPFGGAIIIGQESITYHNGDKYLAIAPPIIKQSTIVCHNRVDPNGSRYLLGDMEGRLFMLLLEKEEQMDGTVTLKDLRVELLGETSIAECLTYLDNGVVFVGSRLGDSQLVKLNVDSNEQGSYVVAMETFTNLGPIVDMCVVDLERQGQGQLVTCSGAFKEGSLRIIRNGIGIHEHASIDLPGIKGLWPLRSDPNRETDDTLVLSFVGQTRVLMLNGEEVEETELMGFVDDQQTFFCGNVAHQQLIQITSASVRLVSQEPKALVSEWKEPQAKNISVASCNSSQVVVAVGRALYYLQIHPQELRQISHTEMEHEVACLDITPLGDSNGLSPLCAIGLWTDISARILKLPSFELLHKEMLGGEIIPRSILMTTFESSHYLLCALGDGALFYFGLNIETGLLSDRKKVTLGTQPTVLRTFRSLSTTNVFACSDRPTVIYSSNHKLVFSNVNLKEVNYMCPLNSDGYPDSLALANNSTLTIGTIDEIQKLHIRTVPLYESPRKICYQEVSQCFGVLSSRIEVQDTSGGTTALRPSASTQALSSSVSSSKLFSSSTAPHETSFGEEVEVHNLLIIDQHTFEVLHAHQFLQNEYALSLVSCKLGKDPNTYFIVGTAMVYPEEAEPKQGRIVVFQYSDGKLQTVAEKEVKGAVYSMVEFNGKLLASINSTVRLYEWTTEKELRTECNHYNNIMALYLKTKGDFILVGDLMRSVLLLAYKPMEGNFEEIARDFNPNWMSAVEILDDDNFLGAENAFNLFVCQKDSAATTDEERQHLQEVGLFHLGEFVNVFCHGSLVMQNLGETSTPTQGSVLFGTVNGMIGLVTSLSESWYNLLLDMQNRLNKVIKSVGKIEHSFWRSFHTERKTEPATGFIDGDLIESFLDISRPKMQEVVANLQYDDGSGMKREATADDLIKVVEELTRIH
Kd for assorted compounds

// below: answered compounds
COMPOUND | TARGET_DESC | PROPERTY_LABEL | REPORTED
COC(=O)Oc1ccccc1C(=O)Nc1ncc([N+](=O)[O-])s1 | Human DDB1 (Homo sapiens (Human), UniProt Q16531) | Kd | 20 to 100 µM
Cc1cc(Br)ccc1C(=O)Nc1ncc([N+](=O)[O-])s1 | Human DDB1 (Homo sapiens (Human), UniProt Q16531) | Kd | < 20 µM
CCCNC(=O)c1cccc(C(=O)Nc2ncc([N+](=O)[O-])s2)c1OC(C)=O | Human DDB1 (Homo sapiens (Human), UniProt Q16531) | Kd | 20 to 100 µM
CN(C)c1ccccc1C(=O)Nc1ncc([N+](=O)[O-])s1 | Human DDB1 (Homo sapiens (Human), UniProt Q16531) | Kd | > 100 µM
CC(=O)Nc1ccccc1C(=O)Nc1ccc(C#N)s1 | Human DDB1 (Homo sapiens (Human), UniProt Q16531) | Kd | 20 to 100 µM
CC(=O)Nc1ccccc1C(=O)Nc1nc(Cl)c([N+](=O)[O-])s1 | Human DDB1 (Homo sapiens (Human), UniProt Q16531) | Kd | 20 to 100 µM

Reported Kd of `CC(=O)Nc1ccccc1C(=O)Nc1nc(C)c(Cl)s1` : 20 to 100 µM

Short answer for O=C(Nc1ncc([N+](=O)[O-])s1)c1ccccc1Br [B-93, 2-Bromo-N-(5-nitrothiazol-2-yl)benzamide] : Kd was 20 to 100 µM

Reported Kd for `CC(=O)Nc1ccccc1C(=O)Nc1ccc(Br)cn1` was 20 to 100 µM

Lab note: measured Kd of CC(=O)Nc1ccccc1C(=O)Nc1ccccn1 [B-123, 2-Acetamido-N-(pyridin-2-yl)benzamide] was < 20 µM

Per the record, CC(=O)Nc1ccccc1C(=O)Nc1ccc(I)cc1 [B-60, 2-Acetamido-N-(4-iodophenyl)benzamide] has Kd of 20 to 100 µM

====

molecular target: Human DDB1 (Homo sapiens (Human), UniProt Q16531); experiment: Surface plasmon resonance (SPR) binding assay to immobilized His-DDB1; conditions: SPR, steady state affinity model, 25° C.; read-out: Binding (DDB1 binder activities, Kd)
pKd: −log10 of the molar value.
pKd reference

Below: 3 molecules and their reported pKd.
MOLECULE | TARGET_DESC | pKd
O=C1CCCCCN1c1ncc([N+](=O)[O-])s1 | Human DDB1 (Homo sapiens (Human), UniProt Q16531) | 4.00 to 4.70
CC(=O)Nc1ccccc1C(=O)Nc1ncc(Br)s1 | Human DDB1 (Homo sapiens (Human), UniProt Q16531) | < 4.00
CC(C)Oc1ccccc1C(=O)Nc1ncc([N+](=O)[O-])s1 | Human DDB1 (Homo sapiens (Human), UniProt Q16531) | > 4.70

With Human DDB1 (Homo sapiens (Human), UniProt Q16531) as the test system, CCc1nnc(CNC(=O)c2ccccc2C2CCNC2)s1 (centres unmarked) showed pKd of 4.00 to 4.70

The molecule `Cc1cc(F)ccc1C(=O)Nc1ncc([N+](=O)[O-])s1` on Human DDB1 (Homo sapiens (Human), UniProt Q16531): pKd was 4.00 to 4.70

Entry `CC(=O)Nc1ccccc1C(=O)Nc1ncc(C(F)(F)F)s1` , tested on Human DDB1 (Homo sapiens (Human), UniProt Q16531), has a reported pKd of > 4.70

Kindly note: Human DDB1 (Homo sapiens (Human), UniProt Q16531), `O=C(Nc1ccccc1C(=O)Nc1ncc([N+](=O)[O-])s1)c1ccccc1` , pKd value reported: < 4.00

Bench note, Human DDB1 (Homo sapiens (Human), UniProt Q16531): CC(=O)Nc1ccccc1C(=O)Nc1nccs1 [B-41, 2-Acetamido-N-(thiazol-2-yl)benzamide] , pKd reads < 4.00
